Here the recorded %Inh is given for each entry.
# Tested on: CLK4;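 note: KINOMEscan kinase panel screen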
# setup_conditions: concentration: 1 μM, replicates: in singlicate; n = 1
experimental_endpoint: %Inh (%)

>  <compound>
Cc1ccc(C(=O)Nc2ccc(Nc3ccnc4cc(-c5ccccn5)ccc34)cc2O)cc1.Cl [GW440146]

>  <endpoint_unit>
%

>  <observed_result>
23

$$$$
>  <compound>
Cn1ccc2ncnc(Oc3cccc(C(=O)Nc4ccccc4)c3)c21

>  <endpoint_unit>
%

>  <observed_result>
18

$$$$
>  <compound>
Cl.NC(=O)c1cccc(Nc2nccc(Nc3ccc(Oc4cccc(Cl)c4)c(Cl)c3)n2)c1 [GW659008]

>  <endpoint_unit>
%

>  <observed_result>
17

$$$$
>  <compound>
COc1ccc2nc(-c3cccc(C)n3)nc(Nc3ccncc3)c2c1 [GSK204919]

>  <endpoint_unit>
%

>  <observed_result>
26

$$$$
>  <compound>
COc1ccc(Nc2nccc(NCCNC(=O)Nc3ccccc3F)n2)cc1 [GSK1379901]

>  <endpoint_unit>
%

>  <observed_result>
29

$$$$
>  <compound>
Cc1ccc(NC(=O)Nc2cccc(Cl)c2)cc1-c1ccc(C(=O)Nc2ccncc2)cc1 [GSK1398468]

>  <endpoint_unit>
%

>  <observed_result>
5

$$$$
>  <compound>
COc1ccc(C2=C(Nc3cccc(C(=O)O)c3)C(=O)NC2=O)cc1 [SB-390765]

>  <endpoint_unit>
%

>  <observed_result>
4

$$$$
>  <compound>
Cc1cccc(-c2nc(C)cc(Nc3ccncc3)n2)n1 [GSK257997]

>  <endpoint_unit>
%

>  <observed_result>
9

$$$$
>  <compound>
CC1=C(C(=O)Nc2cc3cn[nH]c3cc2F)C(c2ccc(C(F)(F)F)cc2)CC(=O)N1 (stereo not drawn) [GSK429286]

>  <endpoint_unit>
%

>  <observed_result>
0

$$$$
>  <compound>
Fc1cc(Cl)ccc1Nc1ccnc2cc(-c3ccc(CN4CCCCC4)o3)ccc12 [GW560116]

>  <endpoint_unit>
%

>  <observed_result>
27

$$$$
>  <compound>
CCCc1ccc(S(=O)(=O)NC2CCN(c3ccnc(Nc4ccc(F)cc4)n3)C2)cc1 (stereo not drawn) [GSK1379715]

>  <endpoint_unit>
%

>  <observed_result>
0

$$$$
>  <compound>
COc1cc(Nc2nccc(N3CCC(NC(=O)Nc4cc(C)ccc4C)C3)n2)cc(OC)c1OC (stereo not drawn) [GSK1379762]

>  <endpoint_unit>
%

>  <observed_result>
29

$$$$
>  <compound>
O=C(Nc1n[nH]c2cc(-c3cccc(F)c3F)ccc12)C1CC1 [SB-733894]

>  <endpoint_unit>
%

>  <observed_result>
0

$$$$
>  <compound>
Cc1c(Cn2ccn3c(=O)cc(N4CCOCC4)nc23)cccc1C(F)(F)F [GSK2289044]

>  <endpoint_unit>
%

>  <observed_result>
33

$$$$
>  <compound>
O=C1NC(=O)C(N2CCc3ccccc32)=C1c1ccccc1Cl [SB-373598]

>  <endpoint_unit>
%

>  <observed_result>
19

$$$$
>  <compound>
COc1ccc(CNC(=O)NC2CCN(c3ccnc(Nc4cc(OC)c(OC)c(OC)c4)n3)C2)cc1 (stereo not drawn) [GSK1379748]

>  <endpoint_unit>
%

>  <observed_result>
0

$$$$
>  <compound>
CN1C(=O)C(Nc2ccc(Cl)c(C(=O)O)c2)=C(c2ccc(Cl)cc2)C1=O [SB-404290]

>  <endpoint_unit>
%

>  <observed_result>
2

$$$$
>  <compound>
CC(=O)Nc1nc2cnc(Nc3cc(NC(=O)c4cccc(CCC#N)c4)ccc3C)nc2s1

>  <endpoint_unit>
%

>  <observed_result>
12

$$$$
